A collection of sequences and their measured phosphorylation enrichment
System: Fer (mouse)
PROTOCOL TEXT: phosphorylation enrichment, bacterial display (enrichment ratio); higher = better substrate or ligand; peptides without Tyr show the background;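 further: 11-residue human phosphosite peptides and single-mutation variants displayed on the E. coli surface, counted by deep sequencing, each peptide's frequency after selection divided by its frequency in the unselected input library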;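 further: frequency after pTyr selection over input frequency; kinase dosed for 20-30% of maximal phosphorylation in three min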
Respond numerically, and do not add a unit to the figure.

Some solved cases for reference:
| RESIDUES | phosphorylation enrichment |
| --- | --- |
| AGGTRYRFVSQ [UCN3_Y95_R91G_YF] | 0.386 |
| GREYIYVDPMQ [PDGFRA_Y574_H570R] | 1.21 |

Quickly give me recorded phosphorylation enrichment for DVSVVCSEVKT [FCRL4_Y493_Y493C]
0.537

---

Tested on: AncSZ
PROTOCOL TEXT: phosphorylation enrichment, bacterial display (enrichment ratio); higher = better substrate or ligand; peptides without Tyr show the background
A collection of sequences and their measured phosphorylation enrichment

Some solved cases for reference:
| RESIDUES | phosphorylation enrichment |
| --- | --- |
| YASALYRQRRS [FGF11_Y162] | 0.613 |
| IPGRYYETGSI [PAX2_Y73_L69P] | 0.505 |
| GIVEEYQLPYY [BMPR1A_Y453] | 3 |
| TEAEPYFCSLR [NPHS1_Y1138_R1140C_YF] | 1.11 |
| AGGTRYRFVSQ [UCN3_Y95_R91G_YF] | 0.426 |

Quickly give me recorded phosphorylation enrichment for RPSRQYATLDV [SCAMP3_Y35]
0.373

Quickly give me recorded phosphorylation enrichment for VECRVYAEDPF [PCCA_Y401_YF]
1.43

Quickly give me recorded phosphorylation enrichment for GRRGQYVMPSE [TTC7A_Y396_L399P]
0.586

Quickly give me recorded phosphorylation enrichment for HKGASYVFRLS [PTPRD_Y891]
1

Quickly give me recorded phosphorylation enrichment for SDVWSYGVTMW [ZAP70_Y525]
1.15

Quickly give me recorded phosphorylation enrichment for DRLASYPDKVR [KRT14_Y129_L130P]
0.508
